The measurements presented in this section are drawn from the supplement of paper PMC9170038.

Give apparent KD of MS2 coat protein for every item shown.
# System: MS2 coat protein
# runDescription: apparent KD of MS2 coat protein; designed switch direction (-1 OFF switch, 1 ON switch): 1; higher = weaker reporter binding
# appliedConditions: Eterna round: R95; input ligand: microRNA oligo, concentration not stated
Answers are plain numbers, in nM.

{"columns": ["chain", "unitSymbol", "apparent KD of MS2 coat protein"],
 "data": [
  ["AGUCCAGCGAAAGCUGGACAAAAGCAUGUACAUGAGGAUCACCCAUGUUCAUGUAUAAGCUUUUUGCUCGUUUUAAA [JL mod - D95 - 17] (puzzle: Sensor for hsa-mir-208a)", "nM", 10.2],
  ["AGAGCCGGCACUGAGGAUAUUCAUAUUAAAACAUGAGGAUCACCCAUGUAGGCCAGAAGGCCUUGGGAGAAGGCAGGUCGGCUCG [Mat - Same State 2 - Mod of UCT - D57] (puzzle: Same State 2)", "nM", 244],
  ["UUUUUUUUUUCGAGACAAGCUUUUUGAUCACAUGAGGAUCACCCAUGUCUCGUCUUAUUUUUUUUUUUUUUUUUUUU [BA Sensor hsa-mir-208a - 2 - 1] (puzzle: Sensor for hsa-mir-208a)", "nM", 33.6],
  ["UAGAAUCUAUCUCAGGAUAUCAUGUCAAAGACAUGAGGAUCACCCAUGUACCAGGAAACUGGUUAUGAGAAGGGAGAUAGAUUCA [Mat - Same State 2 - Mod - D34] (puzzle: Same State 2)", "nM", 98.3],
  ["GAGUGACAUGAGGAUCACCCAUGUAGAAUAGAACAAGGAUAUGUGGAAGGCGGAGGAGAGACAGAAGGUGUUGAGG [JR_SS1_Sub058] (puzzle: Same State 1)", "nM", 77.1],
  ["GGUUUAGUCGAGUGCCAUUCCACUCGAAAACAUGAGGAUCACCCAUGUUUGGGACAAGCUUUGCUCCUCGUCUUUCC [Inertequ] (puzzle: Sensor for hsa-mir-208a)", "nM", 75.8],
  ["UUUGGGUGGCUGGAGGAUAUUCUUGUGGUUACAUGAGGAUCACCCAUGUGCCGCGCGGUGCGCGAGGAGAAGGCUGGCGGCCGUU (puzzle: Same State 2)", "nM", 48.3],
  ["UGGUUGGAGAGAGAGGAUAUCCAAUUUUCAACAUGAGGAUCACCCAUGUAGAACGUAGGUAAUUGGGAGAAGGCUCAAGAGACAU [salish99_ss2_r3_100] (puzzle: Same State 2)", "nM", 14.5],
  ["AUAAAACAUGAGGAUCACCCAUGUCAACAAAGUCGAGGAUAUGGUCAAAUAAAAUAAGAACCAGAAGGCGAAUAAU [salish99_ss1_r3_029] (puzzle: Same State 1)", "nM", 26.3],
  ["AUAAAACAUGAGGAUCACCCAUGUCAACAAAGUCGAGGAUAUGGGCAAAUAAAUUAAGAACCAGAAGGCGAAUAAU [salish99_ss1_r3_021] (puzzle: Same State 1)", "nM", 236]
]}

Need apparent KD of MS2 coat protein for each of these sequences.
1. GGUCCAGCUUUUGCUGGUCCUUCGCUUGCACAUGAGGAUCACCCAUGUCGUGUACAUGCUUGGUGCCCGUCUUUUUU [Photon Torp-16] (puzzle: Sensor for hsa-mir-208a)
2. AUAAGUUCGAUGCUCGUCUCUCCGUACAAACAUGAGGAUCACCCAUGUGGUCGGGAAGUAGCCCGGCCAGUAUGACC [Arbesoce] (puzzle: Sensor for hsa-mir-208a)
3. AGUCCAGCGAAAGCUGGACAAAAGCAUGUACAUGAGGAUCACCCAUGUUCAUGUACAGGCUUUUUGCUCGUCUUAAA [JL mod - D95 - 8] (puzzle: Sensor for hsa-mir-208a)
4. GGUCCGGCCUGAGCUGGACCGGAGCAUGUACAUGAGGAUCACCCAUGUCAUGUACAGGCUUCUUGCUCGUCUUGUUG [JL-shm-2.16 JL Mod] (puzzle: Sensor for hsa-mir-208a)
5. GUAUAACAUGAGGAUCACCCAUGUCAACAAAGUCGAGGAUAUGGGCAGAGAGGAGAAGAACCAGAAGGCGAAUAUG [Mat - Same State 1 - Mod of UCT - D37] (puzzle: Same State 1)
6. CGUCCAGCCUGAGCUGGACAAAAGCAUGUACAUGAGGAUCACCCAUGUUCAUGUACAAGCUUUUUGCUCGUCUUACG [salish99_208a_r3_093x] (puzzle: Sensor for hsa-mir-208a)
7. AAGUAGGAGUUACAGGAUAUAUGGAGGAGGACAUGAGGAUCACCCAUGUGAGAGAUGAGAGGAGGAUAGAAGGGUAAGGGAGUAA [JR_SS2_Sub027] (puzzle: Same State 2)
8. GGAGCCGGCACUGAGGAUAUUCAUAUUAAAACAUGAGGAUCACCCAUGUAGGCCAGAAGGCCUUGGGAGAAGGCAGGUCGGCUCA [Mat - Same State 2 - Mod of UCT - D59] (puzzle: Same State 2)

result:
1. 44.9
2. 22
3. 12.6
4. 15
5. 59.2
6. 16.7
7. 20.9
8. 235

For each of the sequences below, state apparent KD of MS2 coat protein.
1. UUUAGUUGCGGGCAGGAUAUGUGUUAAAAUACAUGAGGAUCACCCAUGUGCGGGUAUAACACCCGACAGAAGGGCCAAUCGCGAC [Laonerce - 2] (puzzle: Same State 2)
2. GGGCCAGCUUUUGCUGGGCCUUCGCUUGCACAUGAGGAUCACCCAUGUCGUGUACACGCUUCCUGCCCGUCUUGUUU [Photon Torp-19] (puzzle: Sensor for hsa-mir-208a)

result:
[56.4, 15.3]
